Target: full length Keap1 protein / full length NRF2 protein (Homo sapiens)
Construct: full length NRF2 protein and full length Keap1 protein (Keap1 exists a dimer) are used; His
Sequence (Q14145 whole entry): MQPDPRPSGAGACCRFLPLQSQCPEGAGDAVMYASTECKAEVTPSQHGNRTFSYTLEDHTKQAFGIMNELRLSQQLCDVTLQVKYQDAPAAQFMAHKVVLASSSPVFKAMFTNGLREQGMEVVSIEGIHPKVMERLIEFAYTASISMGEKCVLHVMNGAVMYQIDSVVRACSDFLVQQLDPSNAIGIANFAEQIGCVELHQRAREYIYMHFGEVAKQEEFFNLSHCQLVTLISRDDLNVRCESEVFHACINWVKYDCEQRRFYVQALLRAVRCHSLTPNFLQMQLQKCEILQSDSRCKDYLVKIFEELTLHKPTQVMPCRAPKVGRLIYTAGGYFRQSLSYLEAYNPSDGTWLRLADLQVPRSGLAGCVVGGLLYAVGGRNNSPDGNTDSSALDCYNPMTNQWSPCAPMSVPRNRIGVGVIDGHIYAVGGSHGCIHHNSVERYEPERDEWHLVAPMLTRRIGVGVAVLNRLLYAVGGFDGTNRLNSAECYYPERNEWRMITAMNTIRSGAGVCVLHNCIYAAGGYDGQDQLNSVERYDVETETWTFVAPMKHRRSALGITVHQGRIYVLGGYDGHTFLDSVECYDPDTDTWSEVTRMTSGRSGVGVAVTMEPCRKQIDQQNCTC
Test: NRF2-Keap1 TR-FRET Low Protein Assay
Format: binding
Settings: 1.25 nM Keap1 FlagHis and 2.5 nM biotin-NRF2 added
Description: NRF2-Keap1 TR-FRET Low Protein Assay In the NRF2-Keap1 TR-FRET (time-resolved fluorescence resonance energy transfer) low protein assay, full length NRF2 protein and full length Keap1 protein (Keap1 exists a dimer) are used. […] Plates are spun at 500 rpm for 1 minute, incubated for 1 hour at RT, and read on an Envision plate reader using a 320 nm excitation filter and 615 nm and 665 nm emission filters. […]
pIC50: −log10 of the molar value. Where a name gives a salt, the structure may show the parent alone.
assay.metric: pIC50

> print(dat)
                                    molecule           val
 1  C[C@H](Oc1cccc(-c2cccc(-n3ncc(C(=O)O)c3[C@@H]3C[C@H]3c3cn(C4CNC4)nn3)c2)c1)C1CCCCC1 (racemic)  7.00 to 8.00
 2  C[C@H](Oc1cccc(-c2cccc(-n3ncc(C(=O)O)c3[C@@H]3C[C@H]3c3cn(C4CN(C)C4)nn3)c2)c1)C1CCCCC1 (racemic)  7.00 to 8.00
 3  Cn1cc(C2CC2c2c(C(=O)O)cnn2-c2cccc(-c3cccc(OCc4ccccc4F)c3)c2)nn1 (centres unmarked)  7.00 to 8.00
 4  CN1CCN(Cc2cccc(-c3cccc(-n4ncc(C(=O)O)c4[C@@H]4C[C@H]4c4cn(C)nn4)c3)c2)S(=O)(=O)c2ccccc21 (racemic)  7.00 to 8.00
 5  O=C(O)c1cnn(-c2cccc(-c3cccc(-n4ncc5c4CCCC5)c3)c2)c1C1CC1  6.00 to 7.00
 6  O=C(O)c1cnn(-c2cccc(-c3cccc(C(=O)N4CCCC5(CCCC5)C4)c3F)c2)c1C1CC1  7.00 to 8.00
 7  C[C@H](Oc1cccc(-c2cccc(-n3ncc(C(=O)O)c3[C@@H]3C[C@H]3c3cn(-c4ccccc4)nn3)c2)c1)C1CCCCC1 (racemic)  6.00 to 7.00
 8  C[C@H](Oc1cccc(-c2cccc(-n3ncc(C(=O)O)c3[C@@H]3C[C@H]3c3cn(C)nn3)c2)c1)C1CCCCC1 [Example 68, Sodium salt]        > 8.00
 9  C[C@H](Oc1cccc(-c2cccc(-n3ncc(C(=O)O)c3[C@@H]3C[C@H]3c3cn(C)nn3)c2)c1)C1CCCCC1 [Example 69]        > 8.00
10  Cn1cc(C2CC2c2c(C(=O)O)cnn2-c2cccc(-c3cccc(CCC4CCCCC4)c3)c2)nn1 (centres unmarked)  7.00 to 8.00
11  C[C@H]1Cc2ccc(Br)cc2S(=O)(=O)N(Cc2cccc(-c3cccc(-n4ncc(C(=O)O)c4[C@@H]4C[C@H]4c4cn(C)nn4)c3)c2F)C1        > 8.00
12  CCC[C@@H]1CCCCN1C(=O)c1cccc(-c2cccc(-n3ncc(C(=O)O)c3C3CC3c3cnn(C)c3)c2)c1 (some centres unmarked)        > 8.00
13  CC1CC(C)CN(C(=O)c2cccc(-c3cccc(-n4ncc(C(=O)O)c4C4CC4)c3)c2F)C1 (centres unmarked)  7.00 to 8.00
14  CC1CCCN(C(=O)c2cccc(-c3cccc(-n4ncc(C(=O)O)c4C4CC4)c3)c2F)CC1 (centres unmarked)  7.00 to 8.00
15  COC1CCCC(COc2cccc(-c3cccc(-n4ncc(C(=O)O)c4[C@H]4C[C@@H]4c4cn(C)nn4)c3)c2)C1 (mixture of isomers)  7.00 to 8.00
16  CCC[C@@H]1CCCCN1C(=O)c1cccc(-c2cccc(-n3ncc(C(=O)O)c3[C@@H]3C[C@H]3c3cc(C)no3)c2)c1F (racemic)        > 8.00
17  CC1CC(C)CN(C(=O)c2cccc(-c3cccc(-n4ncc(C(=O)O)c4[C@@H]4C[C@H]4c4cn(C)nn4)c3)c2F)C1 (mixture of isomers)        > 8.00
18  Cn1cc(C2CC2c2c(C(=O)O)cnn2-c2cccc(-c3cccc(SCC4CCCCC4)c3)c2)nn1 (centres unmarked)  7.00 to 8.00
19  O=C(O)c1cnn(-c2cccc(-c3cccc(C(=O)N4CCCC5CCCCC54)c3F)c2)c1C1CC1 (centres unmarked)  7.00 to 8.00
20  CC(Oc1cccc(-c2cccc(-n3ncc(C(=O)O)c3[C@H]3C[C@@H]3c3cn(C)nn3)c2)c1)c1cccc(-c2ccccc2)c1 (mixture of isomers)  6.00 to 7.00
21  Cn1cc(C2CC2c2c(C(=O)O)cnn2-c2cccc(-c3cccc(OCc4ccc(F)cc4)c3)c2)nn1 (centres unmarked)  6.00 to 7.00
22  Cn1cc([C@@H]2C[C@H]2c2c(C(=O)O)cnn2-c2cccc(-c3cccc(S(=O)(=O)N4CCCCC4)c3)c2)nn1 (racemic)  7.00 to 8.00
23  Cn1cc([C@H]2C[C@@H]2c2c(C(=O)O)cnn2-c2cccc(-c3cccc(OCc4ccc(-c5ccccc5)cc4)c3)c2)nn1 (racemic)  6.00 to 7.00
24  CC[C@H]1COc2ccccc2CN1Cc1cccc(-c2cccc(-n3ncc(C(=O)O)c3[C@@H]3C[C@H]3c3cn(C)nn3)c2)c1        > 8.00
25  Cn1cc(C2CC2c2c(C(=O)O)cnn2-c2cccc(-c3cccc(OCc4cccc(F)c4)c3)c2)nn1 (centres unmarked)  6.00 to 7.00
26  C[C@H](Oc1cccc(-c2cccc(-n3ncc(C(=O)O)c3[C@@H]3C[C@H]3c3cn(C4COC4)nn3)c2)c1)C1CCCCC1 (racemic)  7.00 to 8.00
